- Assay overview: Stability in human serum at 37 °C (radio-HPLC)
- Type: in vitro ADME
- Stated conditions: 48 h, read-out: intact radiolabeled ligand (RCP)
Reported endpoint: remaining at 48 h (%)
Give just the number in %; leave the unit off.

INSERT INTO results (compound, recorded_value) VALUES
  ('CC(C)C[C@H](NC(=O)C[C@H](O)[C@H](CC(C)C)NC(=O)[C@H](Cc1c[nH]cn1)NC(=O)CNC(=O)[C@@H](NC(=O)[C@H](C)NC(=O)[C@H](Cc1c[nH]c2ccccc12)NC(=O)[C@H](CCC(N)=O)NC(=O)[C@@H](Cc1ccccc1)NC(=O)CN1CCC(NC(=O)CN2CCN(CC(=O)O)CCN(CC(=O)O)CCN(CC(=O)O)CC2)CC1)C(C)C)C(N)=O [[^177Lu]Lu-RM2, metal not drawn]', 92.3);

Look up remaining at 48 h for this compound: CC(C)CC(CC(C)C)NC(=O)[C@H](Cc1cnc[nH]1)NC(=O)CNC(=O)[C@@H](NC(=O)[C@H](C)NC(=O)[C@H](Cc1c[nH]c2ccccc12)NC(=O)[C@H](CCC(N)=O)NC(=O)[C@@H](Cc1ccccc1)NC(=O)COCC(=O)Nc1ccc(CNC(=O)CN2CCN(CC(=O)O)CCN(CC(=O)O)CCN(CC(=O)O)CC2)cc1)C(C)C [[^177Lu]Lu-NeoB, metal not drawn]
81

====

- Assay overview: Stability in human serum at 37 °C (radio-HPLC)
- Format: in vitro ADME
- Stated conditions: 4 h, read-out: intact radiolabeled ligand (RCP)
Reported endpoint: remaining at 4 h (%)
Give just the number in %; leave the unit off.

INSERT INTO measurements (compound, reported_endpoint, recorded_value) VALUES
  ('CC(C)C[C@H](NC(=O)C[C@H](O)[C@H](CC(C)C)NC(=O)[C@H](Cc1c[nH]cn1)NC(=O)CNC(=O)[C@@H](NC(=O)[C@H](C)NC(=O)[C@H](Cc1c[nH]c2ccccc12)NC(=O)[C@H](CCC(N)=O)NC(=O)[C@@H](Cc1ccccc1)NC(=O)CN1CCC(NC(=O)CN2CCN(CC(=O)O)CCN(CC(=O)O)CCN(CC(=O)O)CC2)CC1)C(C)C)C(N)=O [[^177Lu]Lu-RM2, metal not drawn]', 'remaining at 4 h', 95.5);

Now, please, on to the next compound.
Look up remaining at 4 h for this compound: CC(C)CC(CC(C)C)NC(=O)[C@H](Cc1cnc[nH]1)NC(=O)CNC(=O)[C@@H](NC(=O)[C@H](C)NC(=O)[C@H](Cc1c[nH]c2ccccc12)NC(=O)[C@H](CCC(N)=O)NC(=O)[C@@H](Cc1ccccc1)NC(=O)COCC(=O)Nc1ccc(CNC(=O)CN2CCN(CC(=O)O)CCN(CC(=O)O)CCN(CC(=O)O)CC2)cc1)C(C)C [[^177Lu]Lu-NeoB, metal not drawn]
97.8

====

- Assay overview: In vivo biodistribution and clearance in PC-3 tumor-bearing mice
- Stated conditions: male, NMRI-Foxn1 nu/nu, mouse, liver, iv, total radioactivity; 72 h p.i., i.v.; read-out: % uptake liver
Measured tissue uptake at 72 h of individual entries

Look up tissue uptake at 72 h for this molecule: CC(C)CC(CC(C)C)NC(=O)[C@H](Cc1cnc[nH]1)NC(=O)CNC(=O)[C@@H](NC(=O)[C@H](C)NC(=O)[C@H](Cc1c[nH]c2ccccc12)NC(=O)[C@H](CCC(N)=O)NC(=O)[C@@H](Cc1ccccc1)NC(=O)COCC(=O)Nc1ccc(CNC(=O)CN2CCN(CC(=O)O)CCN(CC(=O)O)CCN(CC(=O)O)CC2)cc1)C(C)C [[^177Lu]Lu-NeoB, metal not drawn]
0.06 %ID/g

Look up tissue uptake at 72 h for this molecule: CC(C)C[C@H](NC(=O)C[C@H](O)[C@H](CC(C)C)NC(=O)[C@H](Cc1c[nH]cn1)NC(=O)CNC(=O)[C@@H](NC(=O)[C@H](C)NC(=O)[C@H](Cc1c[nH]c2ccccc12)NC(=O)[C@H](CCC(N)=O)NC(=O)[C@@H](Cc1ccccc1)NC(=O)CN1CCC(NC(=O)CN2CCN(CC(=O)O)CCN(CC(=O)O)CCN(CC(=O)O)CC2)CC1)C(C)C)C(N)=O [[^177Lu]Lu-RM2, metal not drawn]
0.02 %ID/g
